Assay: Pharmacokinetics (plasma Cmax, AUC, Tmax, t1/2, trough concentrations)
Assay type: in vivo, human
Conditions: human, plasma, oral, 25 mg, steady state Day 28; 25 mg BID; read-out: AUC0-24, Mean (SD)
readout.label: AUC(0-t) (ng·h/mL)

[
  {
    "record.smiles": "CC(=O)N[C@H]1CC[C@H](NC(=O)CN2CCN(c3nncc(-c4ccc(C)cc4)n3)CC2)CC1",
    "readout.label": "AUC(0-t)",
    "reported.value": 1760
  }
]

* * *

Test: Pharmacokinetics (plasma Cmax, AUC, Tmax, t1/2, trough concentrations)
Type: in vivo, human
Details: human, plasma, oral, 12.5 mg, Day 56; 12.5 mg BID; read-out: Trough Plasma Concentration, Median

[
  {
    "compound": "CC(=O)N[C@H]1CC[C@H](NC(=O)CN2CCN(c3nncc(-c4ccc(C)cc4)n3)CC2)CC1 [Compound A HBr]",
    "unit.text": "ng/mL",
    "concentration at 56 day": 21.6
  }
]

* * *

Assay: Pharmacokinetics (plasma Cmax, AUC, Tmax, t1/2, trough concentrations)
Assay type: in vivo, human
Conditions: human, plasma, oral, 100 mg, 100 mg QD; Cohort 1; Day 28; read-out: Steady-state Cmax
From the text: Pharmacokinetic endpoints of this study are PK parameters, including, of area under the plasma concentration versus time curve (AUC), maximum plasma concentration (Cmax), time to maximum concentration (Tmax), and half-life (t1/2) will be summarized descriptively for Randomization (baseline) and Study Weeks 1, 4, and 8 PK/PD Analysis Set includes all subjects in the SAF who have sufficient data available for the analysis of pharmacokinetic and pharmacodynamic measurements. […]
readout.label: Cmax (ng/mL)

[
  {
    "record.smiles": "CC(=O)N[C@H]1CC[C@H](NC(=O)CN2CCN(c3nncc(-c4ccc(C)cc4)n3)CC2)CC1",
    "unit.text": "ng/mL",
    "reported.value": 1620
  }
]

* * *

Assay: Pharmacokinetics (plasma Cmax, AUC, Tmax, t1/2, trough concentrations)
Format: in vivo, human
Conditions: human, plasma, oral, 12.5 mg, steady state Day 28; 12.5 mg BID; read-out: Cmax, Median
readout.label: Cmax (ng/mL)

[
  {
    "record.smiles": "CC(=O)N[C@H]1CC[C@H](NC(=O)CN2CCN(c3nncc(-c4ccc(C)cc4)n3)CC2)CC1",
    "reported.value": 137
  }
]

* * *

Assay: Pharmacokinetics (plasma Cmax, AUC, Tmax, t1/2, trough concentrations)
Format: in vivo, human
Details: human, plasma, oral, 25 mg, steady state Day 28; 25 mg BID; read-out: Cmax, Median
readout.label: Cmax (ng/mL)

[
  {
    "record.smiles": "CC(=O)N[C@H]1CC[C@H](NC(=O)CN2CCN(c3nncc(-c4ccc(C)cc4)n3)CC2)CC1",
    "reported.value": 335
  }
]

* * *

Assay: Pharmacokinetics (plasma Cmax, AUC, Tmax, t1/2, trough concentrations)
Format: in vivo, human
Conditions: human, plasma, oral, 100 mg, steady state Day 28; 100 mg QD Part 1; read-out: Cmax, Mean (SD)

[
  {
    "molecule": "CC(=O)N[C@H]1CC[C@H](NC(=O)CN2CCN(c3nncc(-c4ccc(C)cc4)n3)CC2)CC1 [Compound A HBr]",
    "Cmax / ng/mL": 1620
  }
]
